Exercise: for every item that follows, state its recorded IC50.
tested on: SK-BR-3; assay: Antiproliferative activity against human SK-BR-3 cells after 72 hrs by cell counting kit analysis; format: functional, cell-based; conditions: SK-BR-3, 72 h
Give bare numbers, in µM.

Please review the following examples before continuing.
O=C(Nc1ccccc1)c1cccc(CO[N+](=O)[O-])c1; 8.2
O=C(Nc1ccccc1)c1ccc(CO)cc1; 9.8
O=C(Nc1ccccc1OC(=O)c1ccc(CCl)cc1)c1ccc(CCl)cc1; 0.6

Each compound below has a recorded value; state its IC50.
1. O=C(Nc1ccccc1)c1ccc(CCl)cc1
2. CC(=O)Oc1ccccc1C(=O)Oc1ccc(CO[N+](=O)[O-])cc1
3. O=C(Nc1cccc(OC(=O)c2ccc(CO[N+](=O)[O-])cc2)c1)c1ccc(CO[N+](=O)[O-])cc1
4. O=C(Nc1ccccc1)c1ccc(CO[N+](=O)[O-])cc1

1: 0.7; 2: 30.5; 3: 6.3; 4: 0.7

Each compound below has a recorded value; state its IC50.
1. O=C(Nc1ccccc1OC(=O)c1cccc(CO[N+](=O)[O-])c1)c1cccc(CO[N+](=O)[O-])c1
2. O=C(Nc1ccccc1OC(=O)c1ccc(CO[N+](=O)[O-])cc1)c1ccc(CO[N+](=O)[O-])cc1
3. O=C(Oc1ccccc1)c1ccc(CO[N+](=O)[O-])cc1

1. 18.5
2. 0.7
3. 50.1

* * *

Exercise: for every item that follows, state its recorded pIC50.
system: SK-BR-3; experiment: Antiproliferative activity against human SK-BR-3 cells after 72 hrs by cell counting kit analysis; type: functional, cell-based; settings: SK-BR-3, 72 h
pIC50: −log10 of the molar value.

Please review the following examples before continuing.
O=C(Nc1ccccc1NC(=O)c1ccc(CO[N+](=O)[O-])cc1)c1ccc(CO[N+](=O)[O-])cc1; < 4.00
CCc1ccc(C(=O)Nc2ccccc2)cc1; < 4.00

pIC50 lookup needed for O=C(Nc1ccccc1)c1ccccc1 [N-PHENYLBENZAMIDE] , thanks.
< 4.00
